# procedure.summary: Comparative pharmacokinetic study, single-dose administration in mice
# Type: in vivo
# condition.label: male, CD1, mouse, plasma, intravenous, 20 mg/kg, single dose
test.readout: AUC(0-t) (ng·h/mL)

Request the reported AUC(0-t) associated with Cn1c(=O)c2c(ncn2CC2OCCO2)n(C)c1=O [doxophylline]
6730

Request the reported AUC(0-t) associated with [2H]C1([2H])OC([2H])(C([2H])([2H])n2cnc3c2c(=O)n(C)c(=O)n3C)OC1([2H])[2H] [d7-doxophylline]
4920

Request the reported AUC(0-t) associated with [2H]C1([2H])OC(Cn2cnc3c2c(=O)n(C)c(=O)n3C)OC1([2H])[2H] [d4-doxophylline]
5410
